Experiment: A quantitative high throughput screen for small molecules that induce DNA re-replication in MCF 10a normal breast cells. Further: nearly all actives have a fitted effect of over 50% in size.
Settings: MCF 10A DNA re-replication, Hoechst nuclear intensity, 48 h; series mostly up to 46.1 µM
Out of some 350,000 compounds screened, about 9,900 (2.8%) were called active. Inconclusive results (about 15%) are left out. The call rests on the fitted dose curve; in most records, active means well fitted activation curve with a large enough effect; inconclusive means small, poorly fitted or top-dose-only effect; inactive means no such curve, though single readings can be large or run the other way. Shown is part of a subset that was picked to be rich in actives.
Outcome codes: TRUE for active, FALSE for inactive

- MOLECULE: "Cc1nc2ccccc2c(C(=O)O)c1-c1ccccn1"
  CLASS_NAME: "FALSE"
- MOLECULE: "O=C(OC12CC3CC(CC(C3)C1)C2)c1ccc(NCc2cc(O)ccc2O)cc1"
  CLASS_NAME: "FALSE"
- MOLECULE: "COc1ccccc1N1CCN(C(=O)C2Cc3ccccc3CN2C(=O)c2ccco2)CC1 (stereo not drawn)"
  CLASS_NAME: "FALSE"
- MOLECULE: "O=C(Cc1cccc2ccccc12)NCCC1=CCCCC1"
  CLASS_NAME: "FALSE"
- MOLECULE: "C/C(=N\\Nc1ccc(Cl)nn1)c1ccccc1O"
  CLASS_NAME: "FALSE"
- MOLECULE: "COc1cccc(C(=O)Nc2nc3ccc(S(C)(=O)=O)cc3s2)c1"
  CLASS_NAME: "FALSE"
- MOLECULE: "Cc1cccc(NC(=O)c2nnn(-c3cccc(C(F)(F)F)c3)c2N)c1"
  CLASS_NAME: "FALSE"
- MOLECULE: "Cc1cc(C(=O)OCC(=O)N2C(C)CCCC2C)c2ccccc2n1 (stereo not drawn)"
  CLASS_NAME: "FALSE"
- MOLECULE: "Cc1nc(Nc2ccccc2C)c2cnn(C)c2n1"
  CLASS_NAME: "FALSE"
- MOLECULE: "COc1ccc(-c2oc(/N=C/N3CCCC3)c(C#N)c2-c2ccc(OC)cc2)cc1"
  CLASS_NAME: "FALSE"
- MOLECULE: "CCCOc1ccccc1C1CC(=O)Nc2cc3c(cc21)OCO3 (stereo not drawn)"
  CLASS_NAME: "TRUE"
- MOLECULE: "CC1(C)CC(=O)C=C(c2ccc(Cl)c(C(F)(F)F)c2)C1"
  CLASS_NAME: "FALSE"
- MOLECULE: "C=CCC[C@H](Cc1ccc(F)cc1)C(=O)OC[C@H](C)NC(=O)[C@H](CC=C)CC(=O)N(CCO)Cc1ccccc1"
  CLASS_NAME: "FALSE"
- MOLECULE: "CC[C@]12c3[nH]c4cc(CCC(=O)N(C)C)ccc4c3CCN1C(=O)[C@@H](CC(=O)NCCCN(C)C)C[C@@H]2C(=O)N1CCN(C(=O)c2ccco2)CC1"
  CLASS_NAME: "FALSE"
- MOLECULE: "CN(Cc1ccc(F)cc1)C(=O)CN1C(=O)c2ccccc2S1(=O)=O"
  CLASS_NAME: "FALSE"
- MOLECULE: "COc1cc(NC(=O)c2cncc(-c3ccc(C#N)cc3)c2)cc(C(=O)Nc2cccc(C(F)(F)F)c2)c1"
  CLASS_NAME: "TRUE"
- MOLECULE: "CC(C)OC(=O)c1ccc(NCc2cc(O)ccc2O)cc1Cl"
  CLASS_NAME: "TRUE"
- MOLECULE: "CCOc1cc(/C=C/C(=O)OCC(=O)NCCN2C(=O)CSC2=O)ccc1OCC(C)C"
  CLASS_NAME: "FALSE"
- MOLECULE: "Cc1ccsc1C(=O)OCC(=O)NCCc1ccccc1"
  CLASS_NAME: "FALSE"
- MOLECULE: "Nn1c(SCC(=O)Nc2ccc3c(c2)CCC3)nnc1C1CC1"
  CLASS_NAME: "FALSE"
- MOLECULE: "O=C(N/N=C/c1ccc(O)c2ccccc12)c1cccnc1"
  CLASS_NAME: "FALSE"
- MOLECULE: "CNC(=O)c1ccc(NC(=O)c2cccc(C(F)(F)F)c2)cc1"
  CLASS_NAME: "FALSE"
- MOLECULE: "Cc1cccc(OCc2nnc(SCn3nnc4ccccc4c3=O)o2)c1"
  CLASS_NAME: "FALSE"
- MOLECULE: "O=C(N/N=C/c1sc(N2CCCCC2)nc1-c1cccs1)c1cccnc1"
  CLASS_NAME: "TRUE"
- MOLECULE: "Cc1cccc(NS(=O)(=O)c2ccc(C)c(C(=O)NCc3cccnc3)c2)c1"
  CLASS_NAME: "FALSE"
- MOLECULE: "CC(C(=O)NC1CCCC1)N1CCN(S(=O)(=O)c2ccccc2Cl)CC1 (stereo not drawn)"
  CLASS_NAME: "FALSE"
- MOLECULE: "CCC(=O)c1ccc(OCC(=O)N(CC)CC2COc3ccccc3O2)cc1 (stereo not drawn)"
  CLASS_NAME: "FALSE"
- MOLECULE: "Cc1nnc(SCC(=O)N2CCN(c3ccccc3)CC2)n1-c1ccccc1"
  CLASS_NAME: "FALSE"
- MOLECULE: "CC(=O)OCC(=O)C1(O)CCC2C3CC(C)C4=CC(=O)CCC4(C)C3C(O)CC21C (stereo not drawn)"
  CLASS_NAME: "FALSE"
- MOLECULE: "Cc1ccc(C)c(C(=O)COC(=O)Cn2[nH]c(=O)c3ccccc3c2=O)c1"
  CLASS_NAME: "FALSE"
- MOLECULE: "CC(NC(=O)COC(=O)c1ccc2ccccc2n1)c1ccccc1 (stereo not drawn)"
  CLASS_NAME: "FALSE"
- MOLECULE: "COc1ccc(C(CNC(=O)c2cccc(S(=O)(=O)Nc3ccc(Br)cc3)c2)N(C)C)cc1 (stereo not drawn)"
  CLASS_NAME: "FALSE"
- MOLECULE: "COc1ccc(C2CC(=O)Nc3cc(C)c(C)cc32)c(OC)c1OC (stereo not drawn)"
  CLASS_NAME: "FALSE"
- MOLECULE: "CC1CN(Cc2ccccc2)C(=S)NC1=O (stereo not drawn)"
  CLASS_NAME: "FALSE"
- MOLECULE: "CCCCn1c(N)c(N(CCC(C)C)C(=O)COC(=O)c2ccc(CC)cc2)c(=O)[nH]c1=O"
  CLASS_NAME: "FALSE"
- MOLECULE: "O=C(COc1cccc(-n2cnnn2)c1)NCCC1=CCCCC1"
  CLASS_NAME: "FALSE"
- MOLECULE: "CN(C(=O)CSc1nnc(-c2ccc3c(c2)OCO3)o1)C1CCS(=O)(=O)C1 (stereo not drawn)"
  CLASS_NAME: "FALSE"
- MOLECULE: "Cc1nnc(OCC(=O)NCCC2=CCCCC2)c2ccccc12"
  CLASS_NAME: "TRUE"
- MOLECULE: "CC(C)C(NC(=O)c1c(F)cccc1F)C(=O)NNC(=O)c1ccccc1 (stereo not drawn)"
  CLASS_NAME: "FALSE"
- MOLECULE: "COc1cccc(NC(=O)COc2cccnc2[N+](=O)[O-])c1"
  CLASS_NAME: "FALSE"
- MOLECULE: "COc1ccc(-c2csc3ncnc(N4CCN(S(=O)(=O)c5cccc(F)c5)CC4)c23)cc1"
  CLASS_NAME: "FALSE"
- MOLECULE: "Cn1c(Cc2cccc3ccccc23)nnc1SCC(=O)N1CCN(c2cccc(Cl)c2)CC1"
  CLASS_NAME: "TRUE"
- MOLECULE: "C/C=C/c1ccc(OCC(=O)NNC(=O)CN(C)S(=O)(=O)c2ccc(C)cc2)c(OC)c1"
  CLASS_NAME: "FALSE"
